Origin of measurements: patent US4103011A

test system: Pseudomonas aeruginosa No. 12; assay: In vivo efficacy against systemic infection; set-up: species or system male mice (ddY); conditions: NO.12, in Mus musculus, iv, twice, about 5 minutes and 6 hours after infection, read-out: ED50 (median effective dose)
Structures can show the parent of a compound that is named as a salt.
Strictly below 4 mg/kg in ED50: TRUE. Otherwise: FALSE.

Q: # strict comparison: is reported ED50 < 4 mg/kg? input = CCn1cc(C(=O)O)c(=O)c2cnc(N3CCNCC3)nc21
A: FALSE

Q: # strict comparison: is reported ED50 < 4 mg/kg? input = CCN1CCN(C(=O)N[C@@H](C(=O)N[C@@H]2C(=O)N3[C@@H]2SC(C)(C)[C@@H]3C(=O)O)c2ccccc2)C(=O)C1=O [Compound H, sodium salt]
A: FALSE

Q: # strict comparison: is reported ED50 < 4 mg/kg? input = CN1CCN(c2ncc3c(=O)c(C(=O)N[C@@H](C(=O)N[C@@H]4C(=O)N5[C@@H]4SC(C)(C)[C@@H]5C(=O)O)c4ccc(O)cc4)c[nH]c3n2)CC1 [Compound A, sodium salt]
A: TRUE

Q: # strict comparison: is reported ED50 < 4 mg/kg? input = CNc1ncc2c(=O)c(C(=O)N[C@@H](C(=O)N[C@@H]3C(=O)N4[C@@H]3SC(C)(C)[C@@H]4C(=O)O)c3ccc(O)cc3)c[nH]c2n1 [Compound F, sodium salt]
A: FALSE

Q: # strict comparison: is reported ED50 < 4 mg/kg? input = CC(=O)N1CCN(c2ncc3c(=O)c(C(=O)N[C@@H](C(=O)N[C@@H]4C(=O)N5[C@@H]4SC(C)(C)[C@@H]5C(=O)O)c4ccc(O)cc4)c[nH]c3n2)CC1 [Compound 2, sodium salt]
A: FALSE

====

tested on: Escherichia coli P-140a; test: In vitro antibacterial activity (MIC); format: cell-based
Structures can show the parent of a compound that is named as a salt.
Provide the recorded minimum inhibitory concentration (MIC) for the entries that follow.
Value expressed in µg/mL; do not type the unit.

Q: Given the entry CC(=O)N1CCN(c2ncc3c(=O)c(C(=O)N[C@@H](C(=O)N[C@@H]4C(=O)N5[C@@H]4SC(C)(C)[C@@H]5C(=O)O)c4ccc(O)cc4)c[nH]c3n2)CC1 [Compound 2, sodium salt] , what minimum inhibitory concentration (MIC) was observed with Escherichia coli P-140a?
A: 12.5

Q: Given the entry CC1(C)S[C@@H]2[C@H](NC(=O)[C@H](NC(=O)c3c[nH]c4nc(N5CCN(C=O)CC5)ncc4c3=O)c3ccc(O)cc3)C(=O)N2[C@H]1C(=O)O [Compound 1, sodium salt] , what minimum inhibitory concentration (MIC) was observed with Escherichia coli P-140a?
A: 12.5

Q: Given the entry CN(C)c1ncc2c(=O)c(C(=O)N[C@@H](C(=O)N[C@@H]3C(=O)N4[C@@H]3SC(C)(C)[C@@H]4C(=O)O)c3ccc(O)cc3)c[nH]c2n1 , what minimum inhibitory concentration (MIC) was observed with Escherichia coli P-140a?
A: 25

Q: Given the entry CC1(C)S[C@@H]2[C@H](NC(=O)[C@H](NC(=O)c3c[nH]c4nc(N5CCN(C=O)CC5)ncc4c3=O)c3ccccc3)C(=O)N2[C@H]1C(=O)O [Compound B, sodium salt] , what minimum inhibitory concentration (MIC) was observed with Escherichia coli P-140a?
A: 12.5

Q: Given the entry CC1(C)S[C@@H]2[C@H](NC(=O)[C@H](NC(=O)c3c[nH]c4nc(N)ncc4c3=O)c3ccc(O)cc3)C(=O)N2[C@H]1C(=O)O [Compound G, sodium salt] , what minimum inhibitory concentration (MIC) was observed with Escherichia coli P-140a?
A: 50

Q: Given the entry CCN1CCN(C(=O)N[C@@H](C(=O)N[C@@H]2C(=O)N3[C@@H]2SC(C)(C)[C@@H]3C(=O)O)c2ccccc2)C(=O)C1=O [Compound H, sodium salt] , what minimum inhibitory concentration (MIC) was observed with Escherichia coli P-140a?
A: 12.5

Q: Given the entry CNc1ncc2c(=O)c(C(=O)N[C@@H](C(=O)N[C@@H]3C(=O)N4[C@@H]3SC(C)(C)[C@@H]4C(=O)O)c3ccc(O)cc3)c[nH]c2n1 [Compound F, sodium salt] , what minimum inhibitory concentration (MIC) was observed with Escherichia coli P-140a?
A: 25

Q: Given the entry CN1CCN(c2ncc3c(=O)c(C(=O)N[C@@H](C(=O)N[C@@H]4C(=O)N5[C@@H]4SC(C)(C)[C@@H]5C(=O)O)c4ccc(O)cc4)c[nH]c3n2)CC1 [Compound A, sodium salt] , what minimum inhibitory concentration (MIC) was observed with Escherichia coli P-140a?
A: 6.25
